procedure-summary: Metabolic stability in human liver microsomes at 5 uM preincubated for 5 mins followed NADPH addition measured after 120 mins by UPLC-MS/MS analysis
Type: ADME, microsome
settings: read-out: Stability
Please respond with reported remaining at 2 h, 5 µM for every item in the list.
Provide the reading as a plain figure in %.

Query C=C(c1ccc(OC)c(N)c1)c1cc(OC)c(OC)c(OC)c1 yields remaining at 2 h, 5 µM of 11.6

Query C=C(c1ccc(OC(F)F)c(N)c1)c1cc(OC)c(OC)c(OC)c1 yields remaining at 2 h, 5 µM of 3.3

Query COc1ccc(C(=C(F)F)c2cc(OC)c(OC)c(OC)c2)cc1N yields remaining at 2 h, 5 µM of 13.6

Query COc1ccc(C(=C(F)F)c2cc(OC)c(OC)c(OC)c2)cc1O yields remaining at 2 h, 5 µM of 5

----------
procedure-summary: Intrinsic clearance in human liver microsomes at 5 uM preincubated for 5 mins followed by NADPH addition measured after 45 mins by UPLC-MS/MS analysis
Assay type: ADME, microsome
settings: read-out: CLH
result-type: microsomal CLint at 5 µM (µL/min/mg)
Provide the reading as a plain figure in µL/min/mg.

Query C=C(c1ccc(OC(F)F)c(N)c1)c1cc(OC)c(OC)c(OC)c1 yields microsomal CLint at 5 µM of 13.6

Query C=C(c1ccc(OC)c(N)c1)c1cc(OC)c(OC)c(OC)c1 yields microsomal CLint at 5 µM of 46

Query COc1ccc(C(=C(F)F)c2cc(OC)c(OC)c(OC)c2)cc1N yields microsomal CLint at 5 µM of 43

Query COc1ccc(C(=C(F)F)c2cc(OC)c(OC)c(OC)c2)cc1O yields microsomal CLint at 5 µM of 64

----------
Please respond with reported IC50 for every item in the list.
Tested on: PBL
procedure-summary: Cytotoxicity against human PBL cells assessed as reduction in cell viability after 72 hrs by MTS assay
Type: cell-based

Query COc1ccc(C(=C(F)F)c2cc(OC)c(OC)c(OC)c2)cc1N yields IC50 of > 10 µM

Query C=C(c1ccc(OC(F)F)c(N)c1)c1cc(OC)c(OC)c(OC)c1 yields IC50 of > 10 µM

Query COc1ccc(/C=C\c2cc(OC)c(OC)c(OC)c2)cc1O yields IC50 of > 10 µM
